These entries and their values trace back to paper PMC9482650.

Biological target: T1, ARHGEF11, O15085
T1 sequence (O15085 42-136, limits assumed, looked up): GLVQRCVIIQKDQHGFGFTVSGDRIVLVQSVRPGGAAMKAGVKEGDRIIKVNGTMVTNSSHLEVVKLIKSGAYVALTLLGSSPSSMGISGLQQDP
Experiment: holdup assay
Design: key: below the threshold = too weak to quantify, mostly under pKd 3.1 to 4
Settings: plain residues with an end cap or a label only (N-terminal biotin on a linker: ado-ado)
Recorded endpoint: pKd
Keep it simple and answer with nothing but the number.

- LPHPHSTTRV [NLGN2, Q8NFZ4]: 3.96

pKd reading for PRISRSQSEL [CCDC134, Q9H6E4] : 3.88

pKd reading for GQEEQVTTRL [TRPC5, Q9UL62] : 4.37

pKd reading for EVEEFPETSV [TRPV3, Q8NET8] : 4.79

pKd reading for LPAHHNATRL [SLC34A1, Q06495;Q06495-1] : 4.11

pKd reading for PEYLGLDVPV [ERBB2, P04626] : 3.83

pKd reading for DDEDRLVIEI [ZNF831, Q5JPB2] : 4.07
